FYI, the data here is from PubChem BioAssay AID1963856.

Catalogue of compounds with associated viability, T/C
# System: LG0567-F671-PDC KRAS tumor spheroid viability;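 further: drug exposure lasted seven days after spheroids formed for three days; 100% = DMSO vehicle control viability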
# ASSAY: Anticancer human tumor LG0567-F671-PDC patient-derived lung adenocarcinoma cell line growth inhibition [KRAS2]
# CONDITION LABEL: second compound 0.1 µM; first compound 0.1 µM; active compounds read low; spheroids with HUVEC and MSC
Give the value in % but do not write % after it.

// below: answered compounds
{"columns": ["COMPOUND", "viability, T/C / %"],
 "data": [
  ["CC(=O)OC12COC1CC(O)C1(C)C(=O)C(O)C3=C(C)C(OC(=O)C(O)C(NC(=O)OC(C)(C)C)c4ccccc4)CC(O)(C(OC(=O)c4ccccc4)C21)C3(C)C (centres undefined) + C=CC(=O)N1CCN(c2nc(OCC3CCCN3C)nc3c2CCN(c2cccc4cccc(C)c24)C3)CC1CC#N", 16.1],
  ["CCN1CCN(Cc2ccc(Nc3ncc(F)c(-c4cc(F)c5nc(C)n(C(C)C)c5c4)n3)nc2)CC1 + C=CC(=O)N1CCN(c2nc(=O)n(-c3c(C)ccnc3C(C)C)c3nc(-c4c(O)cccc4F)c(F)cc23)C(C)C1", 18.7],
  ["CC1(C)CCC(CN2CCN(c3ccc(C(=O)NS(=O)(=O)c4ccc(NCC5CCOCC5)c([N+](=O)[O-])c4)c(Oc4cnc5[nH]ccc5c4)c3)CC2)=C(c2ccc(Cl)cc2)C1 + CNCc1ccccc1-c1csc(C(C)Nc2nc(C)nc3cc(OC)c(OC)cc23)c1", 68.1]
]}

stdin: Give LG0567-F671-PDC KRAS tumor spheroid viability viability, T/C for Cn1ncnc1[C@H]1c2n[nH]c(=O)c3cc(F)cc(c23)N[C@@H]1c1ccc(F)cc1 + C=CC(=O)N1CCN(c2nc(OCC3CCCN3C)nc3c2CCN(c2cccc4cccc(C)c24)C3)CC1CC#N
stdout: 27.9
